Tested on: Abutilon theophrasti (ABUTH)
assay-overview: Herbicidal pre-emergence action, test C (Table C5)
Format: in vivo
cond: dosage 320 g/ha; visual scoring after about 3 weeks; 100% = plants have died, 0% = like control plants
parameter-measured: Pre-emergence action against Abutilon theophrasti (ABUTH) (%)
Write the value in % as a bare number.

Example cases with answers are listed next.
- structure: "FC(F)c1cc(-c2ccccc2Oc2ccccn2)on1"
  observed-value: 100
- structure: "Fc1cccc(Oc2ccc(Cl)cn2)c1-c1cc(C(F)F)no1"
  observed-value: 100
- structure: "Cc1cccc(Oc2ncc(Cl)cc2F)c1-c1cc(C(F)F)on1"
  observed-value: 100
- structure: "Fc1cccc(Oc2ncc(Cl)cc2Cl)c1-c1cc(C(F)F)no1"
  observed-value: 90
- structure: "N#Cc1cccc(Oc2ccc(Cl)cn2)c1-c1cc(C(F)F)no1"
  observed-value: 100

Data request, read-out Pre-emergence action against Abutilon theophrasti (ABUTH), for N#Cc1ccc(Oc2cccc(F)c2-c2cc(C(F)(F)F)on2)nc1
90

Data request, read-out Pre-emergence action against Abutilon theophrasti (ABUTH), for Fc1cccc(Oc2ccc(Br)cn2)c1-c1cc(C(F)F)no1
100

Data request, read-out Pre-emergence action against Abutilon theophrasti (ABUTH), for FC(F)c1cc(-c2ccccc2Oc2ccc(Cl)cn2)on1
100

====

Reported values of Pre-emergence action against Setaria viridis (SETVI) for individual entries
Tested on: Setaria viridis (SETVI)
assay-overview: Herbicidal pre-emergence action, test C (Table C4)
Assay type: in vivo
cond: dosage 1280 g/ha; visual scoring after about 3 weeks; 100% = plants have died, 0% = like control plants
Just the number plus its unit, please.

- structure: "Cc1cccc(Oc2ncc(Cl)cc2F)c1-c1cc(C(F)F)on1"
  observed-value: "100%"
- structure: "Cc1cccc(Oc2ncc(Cl)cc2F)c1-c1cc(C(F)F)no1"
  observed-value: "100%"
- structure: "FC(F)c1cc(-c2ccccc2Oc2ccccn2)on1"
  observed-value: "100%"
- structure: "Fc1cccc(Oc2ncc(Cl)cc2Cl)c1-c1cc(C(F)F)no1"
  observed-value: "100%"
- structure: "Fc1cc(Cl)cnc1Oc1ccccc1-c1ccc(Cl)cn1"
  observed-value: "100%"
- structure: "Fc1cc(Cl)cnc1Oc1ccccc1-c1cc(C(F)F)no1"
  observed-value: "100%"

Data request, read-out Pre-emergence action against Setaria viridis (SETVI), for Fc1cccnc1Oc1cccc(F)c1-c1cc(C(F)F)no1
100%

Data request, read-out Pre-emergence action against Setaria viridis (SETVI), for Cc1cccc(Oc2ccc(Cl)cn2)c1-c1cc(C(F)F)no1
100%

Data request, read-out Pre-emergence action against Setaria viridis (SETVI), for Cc1ccc(-c2cc(C(F)F)no2)c(Oc2ccccn2)c1
100%

====

Test system: soybean (GLXMA, var. Sultana)
assay-overview: Pre-emergence crop plant compatibility (Table E1)
Format: in vivo
cond: dosage 80 g/ha, scored after about 3 weeks, 0% = like control plants
parameter-measured: Crop plant compatibility in pre-emergence, GLXMA (damage to soybean) (%)
Write the value in % as a bare number.

Example cases with answers are listed next.
- structure: "Fc1cc(Cl)cnc1Oc1ccccc1-c1cc(C(F)F)no1"
  observed-value: 10
- structure: "Fc1cccc(Oc2ncc(Cl)cn2)c1-c1cc(C(F)F)no1"
  observed-value: 100
- structure: "FC(F)c1cc(-c2ccccc2Oc2ccc(Cl)cn2)on1"
  observed-value: 20
- structure: "FC(F)c1cc(-c2ccccc2Oc2ncc(Cl)cn2)on1"
  observed-value: 80
- structure: "Fc1cccc(Oc2ccc(Cl)cn2)c1-c1cc(C(F)F)no1"
  observed-value: 20

Data request, read-out Crop plant compatibility in pre-emergence, GLXMA (damage to soybean), for Fc1cc(Cl)cnc1Oc1cccc(F)c1-c1cc(C(F)F)no1
20

====

System: Poa annua (POAAN)
assay-overview: Herbicidal post-emergence action (Table B3)
Type: in vivo
cond: 320 g/ha; rated visually after about 3 weeks; 100% = plants have died, 0% = like control plants
Reported values of Post-emergence action against Poa annua (POAAN) for individual entries
Write the value in % as a bare number.

- structure: "Fc1cccc(Oc2ccc(Br)cn2)c1-c1cc(C(F)F)no1"
  subject-of-test: "Poa annua (POAAN)"
  unit-annotation: "%"
  observed-value: 100
- structure: "Fc1cccnc1Oc1cccc(F)c1-c1cc(C(F)F)no1"
  subject-of-test: "Poa annua (POAAN)"
  unit-annotation: "%"
  observed-value: 100
- structure: "Cc1cc(C)c(-c2cc(C(F)F)no2)c(Oc2ccccn2)c1"
  subject-of-test: "Poa annua (POAAN)"
  unit-annotation: "%"
  observed-value: 100
- structure: "COc1ccc(-c2cc(C(F)F)no2)c(Oc2ccc(Cl)cn2)c1"
  subject-of-test: "Poa annua (POAAN)"
  unit-annotation: "%"
  observed-value: 100
- structure: "FC(F)c1cc(-c2c(Oc3ccc(Cl)cn3)cccc2C2CC2)on1"
  subject-of-test: "Poa annua (POAAN)"
  unit-annotation: "%"
  observed-value: 100

Data request, read-out Post-emergence action against Poa annua (POAAN), for Fc1cc(Cl)cnc1Oc1ccccc1-c1ccc(Cl)cn1
100

Data request, read-out Post-emergence action against Poa annua (POAAN), for Cc1cccc(Oc2ncc(Cl)cc2F)c1-c1cc(C(F)F)no1
100

Data request, read-out Post-emergence action against Poa annua (POAAN), for Fc1cccc(Oc2ccc(Cl)cn2)c1-c1cc(C(F)F)on1
100

Data request, read-out Post-emergence action against Poa annua (POAAN), for Fc1cccc(Oc2ccc(Cl)cn2)c1-c1cc(C(F)F)no1
100

Data request, read-out Post-emergence action against Poa annua (POAAN), for Fc1cccnc1Oc1ccccc1-c1cc(C(F)F)no1
100

Data request, read-out Post-emergence action against Poa annua (POAAN), for N#Cc1cccc(Oc2ccc(Cl)cn2)c1-c1cc(C(F)F)no1
100

Data request, read-out Post-emergence action against Poa annua (POAAN), for Cn1nc(-c2c(F)cccc2Oc2ncc(Cl)cc2F)cc1C(F)F
100

Data request, read-out Post-emergence action against Poa annua (POAAN), for Fc1ccc(Oc2ncc(Cl)cc2F)c(-c2cc(C(F)F)on2)c1
100

Data request, read-out Post-emergence action against Poa annua (POAAN), for Cc1ccc(-c2cc(C(F)F)no2)c(Oc2ccc(Cl)cn2)c1
100

====

Test system: Bassia scoparia (KCHSC)
assay-overview: Herbicidal pre-emergence action, test C (Table C11)
Assay type: in vivo
cond: dosage 1280 g/ha, visual scoring vs untreated controls
Reported values of Pre-emergence action against Bassia scoparia (KCHSC) for individual entries
Write the value in % as a bare number.

Example cases with answers are listed next.
- molecule: "Cn1nc(-c2c(F)cccc2Oc2ncc(Cl)cc2F)cc1C(F)F [Example 1-61]"
  observed-value: 100
- molecule: "Fc1cc(Cl)cnc1Oc1ccccc1-c1cncc(C(F)(F)F)c1 [Example 1-72]"
  observed-value: 100
- molecule: "FC(F)c1cc(-c2ccccc2Oc2ccc(Cl)cn2)on1 [Example 1-35]"
  observed-value: 90

Now look at this entry.
Data request, read-out Pre-emergence action against Bassia scoparia (KCHSC), for FC(F)c1cc(-c2ccccc2Oc2ccccn2)on1 [Example 1-38]
100

====

System: Echinochloa crus-galli (ECHCG)
assay-overview: Herbicidal post-emergence action (Table B1)
Format: in vivo
cond: 320 g/ha; rated visually after about 3 weeks; 100% = plants have died, 0% = like control plants
parameter-measured: Post-emergence action against Echinochloa crus-galli (ECHCG) (%)
Write the value in % as a bare number.

Example cases with answers are listed next.
- compound: "Fc1ccc(Oc2ncc(Cl)cc2F)c(-c2cc(C(F)F)on2)c1 [Example 1-31]"
  observed-value: 90
- compound: "Cc1ccc(-c2cc(C(F)F)no2)c(Oc2ccc(Cl)cn2)c1 [Example 1-26]"
  observed-value: 100
- compound: "FC(F)c1cc(-c2c(Br)cccc2Oc2ccc(Cl)cn2)on1 [Example 1-53]"
  observed-value: 100

Data request, read-out Post-emergence action against Echinochloa crus-galli (ECHCG), for Fc1cccc(Oc2ccc(Cl)cn2)c1-c1cc(C(F)F)no1 [Example 1-17]
100

Data request, read-out Post-emergence action against Echinochloa crus-galli (ECHCG), for Fc1cccc(Oc2ccccn2)c1-c1cc(C(F)F)no1 [Example 1-16]
90

====

System: Setaria viridis (SETVI)
assay-overview: Herbicidal post-emergence action (Table B4)
Assay type: in vivo
cond: 1280 g/ha; rated visually after about 3 weeks; 100% = plants have died, 0% = like control plants
parameter-measured: Post-emergence action against Setaria viridis (SETVI)
Just the number plus its unit, please.

- structure: "Fc1cc(Cl)cnc1Oc1ccccc1-c1cncc(C(F)(F)F)c1"
  observed-value: "90%"
- structure: "FC(F)c1cc(-c2ccccc2Oc2ccc(Cl)cn2)on1"
  observed-value: "100%"

Data request, read-out Post-emergence action against Setaria viridis (SETVI), for Fc1cc(Cl)cnc1Oc1cccc(F)c1-c1cc(C(F)F)no1
100%

Data request, read-out Post-emergence action against Setaria viridis (SETVI), for N#Cc1cccc(Oc2ccc(Cl)cn2)c1-c1cc(C(F)F)no1
100%

Data request, read-out Post-emergence action against Setaria viridis (SETVI), for Fc1cc(Cl)cnc1Oc1ccccc1-c1cc(C(F)F)no1
100%

Data request, read-out Post-emergence action against Setaria viridis (SETVI), for Fc1cccc(Oc2ncc(Cl)cc2Cl)c1-c1cc(C(F)F)no1
100%

Data request, read-out Post-emergence action against Setaria viridis (SETVI), for Fc1cccnc1Oc1cccc(F)c1-c1cc(C(F)F)no1
90%

Data request, read-out Post-emergence action against Setaria viridis (SETVI), for Fc1ccc(Oc2ncc(Cl)cc2F)c(-c2cc(C(F)F)on2)c1
100%

Data request, read-out Post-emergence action against Setaria viridis (SETVI), for Cc1cccc(Oc2ccc(Cl)cn2)c1-c1cc(C(F)F)no1
100%

Data request, read-out Post-emergence action against Setaria viridis (SETVI), for Fc1cccc(Oc2ccc(Cl)cn2)c1-c1cc(C(F)F)no1
100%

Data request, read-out Post-emergence action against Setaria viridis (SETVI), for Fc1cccc(Oc2ccc(Br)cn2)c1-c1cc(C(F)F)no1
100%

Data request, read-out Post-emergence action against Setaria viridis (SETVI), for FC(F)c1cc(-c2c(Br)cccc2Oc2ccc(Cl)cn2)on1
100%
